target: UniProt:Q07343
Sequence (Q07343 whole entry): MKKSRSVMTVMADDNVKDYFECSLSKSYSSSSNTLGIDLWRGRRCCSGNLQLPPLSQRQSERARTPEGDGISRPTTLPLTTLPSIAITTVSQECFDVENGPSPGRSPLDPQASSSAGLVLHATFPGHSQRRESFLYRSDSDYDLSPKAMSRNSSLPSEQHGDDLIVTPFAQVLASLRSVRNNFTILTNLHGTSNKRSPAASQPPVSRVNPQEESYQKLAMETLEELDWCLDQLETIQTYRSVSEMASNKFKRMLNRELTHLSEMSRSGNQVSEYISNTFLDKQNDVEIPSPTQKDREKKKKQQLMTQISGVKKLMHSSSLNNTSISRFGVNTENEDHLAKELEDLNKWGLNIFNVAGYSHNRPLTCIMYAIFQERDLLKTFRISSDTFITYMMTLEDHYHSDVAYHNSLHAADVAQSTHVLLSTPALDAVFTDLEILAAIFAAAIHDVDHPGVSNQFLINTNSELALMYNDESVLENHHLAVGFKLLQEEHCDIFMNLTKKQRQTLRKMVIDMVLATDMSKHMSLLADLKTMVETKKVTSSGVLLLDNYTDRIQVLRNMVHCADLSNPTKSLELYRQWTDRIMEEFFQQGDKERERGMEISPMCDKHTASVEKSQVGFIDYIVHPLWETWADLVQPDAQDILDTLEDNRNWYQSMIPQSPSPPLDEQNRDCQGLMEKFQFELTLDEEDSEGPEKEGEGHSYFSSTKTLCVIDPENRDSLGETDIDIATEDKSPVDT
assayName: Inhibition of PDE4B at 1 uM
measuredProperty: inhibition (%)
The figure you give is taken to be in %; do not add the unit.

// below: answered compounds
Lookup: Quick one: inhibition of COc1ccc(-c2nc(C(N)=O)c(CN3CCCCC3)o2)c2ccc(C(F)(F)F)nc12 ?
Found: 27

Lookup: Quick one: inhibition of CCN(CC)Cc1oc(-c2ccc(OC)c3nc(C(F)(F)F)ccc23)nc1C(N)=O ?
Found: 21

Lookup: Quick one: inhibition of COc1ccc(-c2nc(C(N)=O)c(CN(C)C)o2)c2ccc(C(F)(F)F)nc12 ?
Found: 40

Next:
Lookup: Quick one: inhibition of COc1ccc(-c2nc(C(N)=O)c(CNC3CCCC3)o2)c2ccc(C(F)(F)F)nc12 ?
Found: 39

Lookup: Quick one: inhibition of COc1ccc(-c2nc(C(N)=O)c(CN3CCCC3)o2)c2ccc(C(F)(F)F)nc12 ?
Found: 31

Reference source: ChEMBL document CHEMBL1139777
